experiment: chemical genetic growth profiling, strain panel (AID 1159580);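 note: tested at 20 µM; growth read once vehicle control cultures reached saturation at 30 °C; 1 = growth at the plate median or of vehicle wells; lower values mean less growth of the strain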; details: S. cerevisiae deletion strains, growth OD, locus YLR058C, strain SHM2, active compounds read low
The campaign covered roughly 5,500 compounds. About 2,000 (36%) were called active. Not shown: some 18% with an inconclusive outcome. The list shows a part of the results.
Hi! Just check whether normalized growth is below 1. Below gives true (1), equal or above gives false (0).

Reference set (3 entries):
# compound, class name
measured = [
    ("O=C(O)c1cc([N+](=O)[O-])ccc1NCCCc1ccccc1", "true (1)"),
    ("COC1(C)CCC2OC2(C)CCC2C1CC2(C)C (stereo unspecified)", "false (0)"),
    ("C1CCC(C(CC2CCCCN2)C2CCCCC2)CC1 (stereo unspecified)", "true (1)"),
]

Turning now to a further compound:
INPUT: Please indicate whether the reported normalized growth of `COc1cc(/C=C/C=O)cc(OC)c1OC` is strictly below 1.
OUTPUT: false (0)

* * *

assay: chemical genetic growth profiling, strain panel (AID 1159580); conditions: S. cerevisiae deletion strains, growth OD, locus YBR136W, strain MEC1
Hit rate of the full screen: of about 5,500 compounds, about 2,000 (36%) were called active. About 18% were inconclusive and are not listed. No stated cut-off is given here; in the data, active means normalized growth mostly below about 0.91 (no sharp cut-off); inconclusive means no clear call, values can overlap the other calls; inactive means mostly above about 0.92. The list shows a part of the results.
Your answer must be one of the following: 1.0 (active), 0.0 (inactive)

# compound, class name
measured = [
    ("CC(=O)c1ccccc1C(=O)c1ccc(C(C)(C)C)cc1", 0.0),
]

Turning now to a further compound:
INPUT: # outcome recorded in this test, key = `CCOC(=O)c1cnc2c(c(C)nn2C)c1Sc1nnc(SC)s1`
OUTPUT: 1.0

* * *

assay: chemical genetic growth profiling, strain panel (AID 1159580); conditions: S. cerevisiae deletion strains, growth OD, locus YPL204W, strain HRR25, active compounds read low
In all, about 5,500 compounds went through this assay and about 2,000 (36%) were called active. Inconclusive results (about 18%) are left out. Some of the results follow.
measured property: normalized growth
// response body must contain only the number

Reference set, count: 4
# molecule, normalized growth
data = [
    ("CN1c2ccccc2C(C)(C)C12C=Cc1cc(O)ccc1O2 (stereo unspecified)", 0.943),
    ("CSc1nnc(COc2ccc(C)c3c2CCC3)n1-c1ccccc1", 0.967),
    ("Cc1ccc(OCc2n[nH]c(=S)n2Cc2ccccc2)c2c1CCC2", 0.723),
    ("FC(F)(F)c1cc(-c2ccc(Cl)cc2)n[nH]1", 0.798),
]

INPUT: Indicate its recorded normalized growth; the molecule in question is `O=C(Nc1cc2c(s1)-c1cc(Cl)ccc1SC2)Oc1ccccc1`
OUTPUT: 0.959

INPUT: Indicate its recorded normalized growth; the molecule in question is `CS/C(Nc1cccc(C(F)(F)F)c1)=C(/C#N)S(=O)(=O)c1ccc(Cl)cc1`
OUTPUT: 0.911

* * *

Entries and their normalized growth
assay: chemical genetic growth profiling, strain panel (AID 1159580); conditions: S. cerevisiae deletion strains, growth OD, locus YHR205W, strain SCH9, active compounds read low
The whole screen tested about 5,500 compounds, of which about 2,000 (36%) were called active. About 18% were inconclusive and are not listed. The list shows a part of the results.
// response body must contain only the number

# compound, normalized growth
records = [
    ("CSc1nnc(COc2ccc(C)c3c2CCC3)n1-c1ccccc1", 0.972),
]

INPUT: Indicate its recorded normalized growth; the compound in question is `Cc1ccc(OCc2n[nH]c(=S)n2Cc2ccccc2)c2c1CCC2`
OUTPUT: 0.908

INPUT: Indicate its recorded normalized growth; the compound in question is CN1c2ccccc2C(C)(C)C12C=Cc1cc(O)ccc1O2 (centres undefined)
OUTPUT: 0.985

INPUT: Indicate its recorded normalized growth; the compound in question is `FC(F)(F)c1cc(-c2ccc(Cl)cc2)n[nH]1`
OUTPUT: 0.842

* * *

assay: chemical genetic growth profiling, strain panel (AID 1159580);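 note: tested at 20 µM; growth read once vehicle control cultures reached saturation at 30 °C; 1 = growth at the plate median or of vehicle wells; lower values mean less growth of the strain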; conditions: S. cerevisiae deletion strains, growth OD, locus YOR080W, strain dia2, active compounds read low
Among all 5,500 compounds or so, about 2,000 (36%) were called active. About 18% were inconclusive and are not listed. The list shows a part of the results.
Entries and their normalized growth
// response body must contain only the number

# compound, quantitative result
measured = [
    ("CC(=O)[O][Hg][c]1ccccc1", 0.0661),
    ("CC1=NN(c2ccccc2)C(=O)C1", 0.97),
    ("OC(c1cc(C(F)(F)F)nc2c(C(F)(F)F)cccc12)C1CCCCN1 (centres undefined)", 1.02),
    ("CC(=O)Oc1ccccc1C(=O)O", 1),
    ("COc1cc2c(cc1OC)[C@@]13CCN4CC5=CCOC6CC(=O)N2C1[C@H]6[C@H]5C[C@H]43 (some centres undefined)", 0.986),
]

INPUT: Indicate its recorded normalized growth; the compound in question is `CNS(=O)(=O)c1ccc(NC(=O)c2ccccc2C(=O)O)cc1`
OUTPUT: 0.994

INPUT: Indicate its recorded normalized growth; the compound in question is `CC[C@H]1OC(=O)[C@H](C)[C@@H](O[C@H]2C[C@@](C)(OC)[C@@H](O)[C@H](C)O2)[C@H](C)[C@@H](O[C@@H]2O[C@H](C)C[C@H](N(C)C)[C@H]2O)[C@](C)(O)C[C@@H](C)[C@@H]2N[C@@H](COCCOC)O[C@H]([C@H]2C)[C@]1(C)O`
OUTPUT: 0.995

INPUT: Indicate its recorded normalized growth; the compound in question is `c1ccc([C@H]2CN3CCSC3=N2)cc1`
OUTPUT: 0.994

INPUT: Indicate its recorded normalized growth; the compound in question is `CC(=O)NS(=O)(=O)c1ccc(NC(=O)c2ccccc2C(=O)O)cc1`
OUTPUT: 1.01

* * *

experiment: chemical genetic growth profiling, strain panel (AID 1159580);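 note: tested at 20 µM; growth read once vehicle control cultures reached saturation at 30 °C; 1 = growth at the plate median or of vehicle wells; lower values mean less growth of the strain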; conditions: S. cerevisiae deletion strains, growth OD, locus YLR058C, strain SHM2, active compounds read low
Out of some 5,500 compounds screened, about 2,000 (36%) were called active. About 18% were inconclusive and are not listed. This is one part of the list. Where a SMILES comes first, the peptide text is derived from it. Side-chain parts run from the residue outwards. [ ]: non-standard residue; d: D form. The star is where a group is joined. X1 = CCC(C)C(N)C1=NC(C(=O)*)CS1; Orn = NCCC[CH](N)C(=O)O
measured property: normalized growth
// response body must contain only the number

Reference set, count: 8
# molecule, normalized growth
records = [
    ("NC(N)=NC(N)=Nc1ccccc1", 1.02),
    ("C[C@]12CCC(=O)C=C1CCC1C2[C@@H](O)C[C@@]2(C)C1CC[C@]2(O)C(=O)COC(=O)CCC(=O)O (stereo not given in full)", 0.989),
    ("O=C(O)c1cc(=O)c2c(Cl)cc(Cl)cc2[nH]1", 1.01),
    ("O=C(O)c1cc(=O)c2cccc(O)c2[nH]1", 0.987),
    ("CC1=NN(c2ccccc2)C(=O)C1", 0.965),
    ("CC[C@H]1CN2CCc3cc(OC)c(OC)cc3C2C[C@@H]1CC1NCCc2cc(OC)c(OC)cc21 (stereo not given in full)", 1.01),
    ("CCC(C)C(N)C1=NC(C(=O)NC(CC(C)C)C(=O)NC(CCC(=O)O)C(=O)NC(C(=O)NCCCCC2NC(=O)C(CC(N)=O)NC(=O)C(CC(=O)O)NC(=O)C(Cc3cnc[nH]3)NC(=O)C(Cc3ccccc3)NC(=O)C(C(C)CC)NC(=O)C(CCCN)NC2=O)C(C)CC)CS1 (stereo not drawn) (cyclo(DNK([Ile-Glu-Leu-X1])[Orn]IFH); configuration not given here)", 0.994),
    ("CC(NCCC(c1ccccc1)c1ccccc1)c1ccccc1 (stereo not given)", 0.958),
]

Next up:
INPUT: Indicate its recorded normalized growth; the molecule in question is C[C@]12CCC(=O)C=C1CCC1C2C(=O)C[C@@]2(C)C1CC[C@]2(O)C(=O)CO (stereo not given in full)
OUTPUT: 0.981

* * *

experiment: chemical genetic growth profiling, strain panel (AID 1159580);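 note: tested at 20 µM; growth read once vehicle control cultures reached saturation at 30 °C; 1 = growth at the plate median or of vehicle wells; lower values mean less growth of the strain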; settings: S. cerevisiae deletion strains, growth OD, locus YKL009W, strain mrt4, active compounds read low
Among all 5,500 compounds or so, about 2,000 (36%) were called active. Not shown: some 18% with an inconclusive outcome. This is one part of the list.
measured property: normalized growth

Reference set, count: 6
# compound, result
measured = [
    ("CCOC([O-])=Nc1c[n+](N2CCOCC2)no1", "1.05 (inactive)"),
    ("NC(N)=NC(N)=Nc1ccccc1", "0.998 (inactive)"),
    ("O=C(O)c1cc(=O)c2cccc(O)c2[nH]1", "0.965 (inactive)"),
    ("COc1ccc2c(c1OC)OC[C@@H](c1ccc(OC)c(OC)c1OC)C2", "1.01 (inactive)"),
    ("COc1c2c(cc3c1OCO3)C13C=C[C@H](OC)CC1N(C2)CC3O (some centres not stated)", "0.992 (inactive)"),
    ("COc1cccc(O)c1O", "1.01 (inactive)"),
]

INPUT: Indicate its recorded normalized growth; the compound in question is `CC[C@@H](CO)NC(=O)[C@@H]1C=C2c3cccc4[nH]cc(c34)C[C@H]2N(C)C1`
OUTPUT: 0.999 (inactive)

INPUT: Indicate its recorded normalized growth; the compound in question is `O=C(CCBr)N1CCN(C(=O)CCBr)CC1`
OUTPUT: 0.993 (inactive)

INPUT: Indicate its recorded normalized growth; the compound in question is `c1ccc([C@H]2CN3CCSC3=N2)cc1`
OUTPUT: 1.01 (inactive)

INPUT: Indicate its recorded normalized growth; the compound in question is `O=C(O)c1cc(=O)c2c(Cl)cc(Cl)cc2[nH]1`
OUTPUT: 1 (inactive)

INPUT: Indicate its recorded normalized growth; the compound in question is OC(c1cc(C(F)(F)F)nc2c(C(F)(F)F)cccc12)C1CCCCN1 (configuration not stated)
OUTPUT: 0.987 (inactive)

INPUT: Indicate its recorded normalized growth; the compound in question is `COc1ccc2c(=O)ccoc2c1`
OUTPUT: 0.99 (inactive)
